Entry source: patent US20240343803A1

- testTarget: T1, human PVRIG-mFc protein (Acro, PVG-H5253) (human, UniProt Q6DKI7 41-171, limits assumed)
- T1 construct: extracellular domain; Bought protein; also called PVRIG-ECD-mFc; not shown: mouse Fc tag of the bought protein
- T1 sequence (looked up): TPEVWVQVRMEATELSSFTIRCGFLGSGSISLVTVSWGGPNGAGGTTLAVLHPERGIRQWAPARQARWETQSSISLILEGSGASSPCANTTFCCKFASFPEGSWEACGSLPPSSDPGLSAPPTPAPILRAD
- runDescription: FACS blocking of PVRIG-mFc binding to CHO-K1-CD112 cells; competitor CD112
# Lookup of reported % IC50 to SO35-hIgG1 keyed by entry
property: % IC50 to SO35-hIgG1 (%)

INSERT INTO results (binder, endpointvalue) VALUES
  ('PVRIG-A50-H2a (Fc fusion, VHH-human IgG1 Fc format is stated for the parental VHH antibodies; not restated for the humanized variants; also called A50.VH2a; not shown: human IgG1 hinge-CH2-CH3 (Fc)) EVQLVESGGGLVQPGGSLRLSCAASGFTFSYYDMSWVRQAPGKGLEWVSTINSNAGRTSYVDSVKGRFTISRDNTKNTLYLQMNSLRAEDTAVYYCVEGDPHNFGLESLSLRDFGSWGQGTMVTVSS', 91.7),
  ('PVRIG-A118-H6 (Fc fusion, VHH-human IgG1 Fc format is stated for the parental VHH antibodies; not restated for the humanized variants; also called A118.VH6; not shown: human IgG1 hinge-CH2-CH3 (Fc)) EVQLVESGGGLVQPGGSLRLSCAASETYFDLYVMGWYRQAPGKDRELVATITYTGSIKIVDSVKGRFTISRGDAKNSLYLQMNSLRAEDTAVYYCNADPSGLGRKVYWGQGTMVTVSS', 97.8),
  ('PVRIG-A118 (Fc fusion, Alpaca VHH expressed as VHH-hinge-CH2-CH3 of human IgG1; not shown: human IgG1 hinge-CH2-CH3 (Fc)) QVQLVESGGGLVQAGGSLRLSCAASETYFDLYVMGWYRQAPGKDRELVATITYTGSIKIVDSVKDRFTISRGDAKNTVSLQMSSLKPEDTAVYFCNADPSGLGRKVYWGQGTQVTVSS', 95.3),
  ('PVRIG-A50-H1d (Fc fusion, VHH-human IgG1 Fc format is stated for the parental VHH antibodies; not restated for the humanized variants; also called A50.VH1d; not shown: human IgG1 hinge-CH2-CH3 (Fc)) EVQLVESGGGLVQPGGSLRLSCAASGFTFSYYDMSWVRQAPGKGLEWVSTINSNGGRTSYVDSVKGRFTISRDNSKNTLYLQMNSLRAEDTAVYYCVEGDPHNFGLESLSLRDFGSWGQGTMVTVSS', 89.1),
  ('PVRIG-A118-H4 (Fc fusion, VHH-human IgG1 Fc format is stated for the parental VHH antibodies; not restated for the humanized variants; also called A118.VH4; not shown: human IgG1 hinge-CH2-CH3 (Fc)) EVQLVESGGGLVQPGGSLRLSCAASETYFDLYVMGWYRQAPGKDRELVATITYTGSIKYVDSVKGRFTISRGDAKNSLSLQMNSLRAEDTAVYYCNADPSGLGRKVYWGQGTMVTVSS', 95.4),
  ('PVRIG-A50-H1 (Fc fusion, VHH-human IgG1 Fc format is stated for the parental VHH antibodies; not restated for the humanized variants; also called A50.VH1; not shown: human IgG1 hinge-CH2-CH3 (Fc)) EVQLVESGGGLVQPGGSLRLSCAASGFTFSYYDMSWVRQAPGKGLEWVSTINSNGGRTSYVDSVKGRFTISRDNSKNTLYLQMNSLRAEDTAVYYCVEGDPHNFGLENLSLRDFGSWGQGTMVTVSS', 78),
  ('PVRIG-A105-H1 (Fc fusion, VHH-human IgG1 Fc format is stated for the parental VHH antibodies; not restated for the humanized variants; also called A105.VH1; not shown: human IgG1 hinge-CH2-CH3 (Fc)) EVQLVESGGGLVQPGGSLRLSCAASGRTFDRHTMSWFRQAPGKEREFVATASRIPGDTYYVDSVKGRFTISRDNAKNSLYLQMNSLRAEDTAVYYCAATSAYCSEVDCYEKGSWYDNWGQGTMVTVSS', 88.1),
  ('PVRIG-A50-H1c (Fc fusion, VHH-human IgG1 Fc format is stated for the parental VHH antibodies; not restated for the humanized variants; also called A50.VH1c; not shown: human IgG1 hinge-CH2-CH3 (Fc)) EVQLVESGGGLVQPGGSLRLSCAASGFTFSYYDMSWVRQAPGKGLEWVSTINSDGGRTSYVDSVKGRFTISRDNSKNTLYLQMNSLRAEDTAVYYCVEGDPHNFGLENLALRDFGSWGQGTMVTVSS', 94.7);
